molecular target: FGFR1 (UniProt P11362); test: phosphorylation enrichment, bacterial display (enrichment ratio); higher = better substrate or ligand; peptides without Tyr show the background;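 also: 11-residue human phosphosite peptides and single-mutation variants displayed on the E. coli surface, counted by deep sequencing, each peptide's frequency after selection divided by its frequency in the unselected input library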;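 also: frequency after pTyr selection over input frequency; kinase dosed for 20-30% of maximal phosphorylation in three min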
Sequence (P11362 whole entry, looked up): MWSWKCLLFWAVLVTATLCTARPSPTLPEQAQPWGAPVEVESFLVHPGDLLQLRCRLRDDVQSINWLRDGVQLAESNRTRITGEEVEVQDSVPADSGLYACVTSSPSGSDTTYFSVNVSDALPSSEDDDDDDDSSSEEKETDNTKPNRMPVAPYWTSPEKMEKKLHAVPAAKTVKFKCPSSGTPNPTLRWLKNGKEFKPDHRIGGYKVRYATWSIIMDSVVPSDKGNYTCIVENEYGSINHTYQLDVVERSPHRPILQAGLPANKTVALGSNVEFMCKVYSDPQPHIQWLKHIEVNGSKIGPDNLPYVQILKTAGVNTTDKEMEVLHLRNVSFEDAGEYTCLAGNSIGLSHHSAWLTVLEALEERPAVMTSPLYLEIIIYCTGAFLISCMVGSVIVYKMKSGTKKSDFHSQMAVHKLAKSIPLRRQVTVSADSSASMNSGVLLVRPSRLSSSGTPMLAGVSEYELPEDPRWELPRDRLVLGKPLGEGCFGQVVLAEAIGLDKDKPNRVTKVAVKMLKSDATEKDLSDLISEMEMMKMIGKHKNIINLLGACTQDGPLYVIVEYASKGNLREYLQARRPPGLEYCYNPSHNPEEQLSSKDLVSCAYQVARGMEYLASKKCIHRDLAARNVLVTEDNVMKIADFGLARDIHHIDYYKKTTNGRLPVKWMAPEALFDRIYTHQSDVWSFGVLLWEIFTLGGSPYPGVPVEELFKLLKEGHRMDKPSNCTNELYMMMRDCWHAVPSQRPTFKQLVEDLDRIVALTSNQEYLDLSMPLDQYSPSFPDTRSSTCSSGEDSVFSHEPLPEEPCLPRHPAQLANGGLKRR
endpoint-name: phosphorylation enrichment
Lab note: record the figure alone, no unit after it.

Input line: Consider the sequence shown here: FKEVVYQAMEE [TACC3_Y684_E680K] What is its recorded phosphorylation enrichment?
Output line: 0.771

Input line: Consider the sequence shown here: RREQDYTNLPS [CSF1R_Y923_R921Q] What is its recorded phosphorylation enrichment?
Output line: 1.01

Input line: Consider the sequence shown here: LDAFIYDAAVL [GRIN2A_Y730] What is its recorded phosphorylation enrichment?
Output line: 0.879

Input line: Consider the sequence shown here: NTQRPHYKGGG [TYROBP_Y111_Y111H] What is its recorded phosphorylation enrichment?
Output line: 0.316

Input line: Consider the sequence shown here: QCQLKYSETPF [SIX6OS1_Y129_Y125C] What is its recorded phosphorylation enrichment?
Output line: 0.68

Input line: Consider the sequence shown here: STILLYHIMAW [GPR143_Y157] What is its recorded phosphorylation enrichment?
Output line: 2.8

Input line: Consider the sequence shown here: SARFRYLLAEK [LDHB_Y173_M175L] What is its recorded phosphorylation enrichment?
Output line: 0.439

Input line: Consider the sequence shown here: DGFTDYAEFAK [MCFD2_Y138_I136T_YF] What is its recorded phosphorylation enrichment?
Output line: 0.654

Input line: Consider the sequence shown here: FQEKGYNKEPR [CHRND_Y38_L42P] What is its recorded phosphorylation enrichment?
Output line: 0.587

Input line: Consider the sequence shown here: SNSATYSGSVA [PDLIM5_Y382] What is its recorded phosphorylation enrichment?
Output line: 0.432

Input line: Consider the sequence shown here: NPQKPYFIRLY [WAS_Y83_S82P] What is its recorded phosphorylation enrichment?
Output line: 0.395

Input line: Consider the sequence shown here: LVRAFYCERRW [CARD11_Y970_R975W] What is its recorded phosphorylation enrichment?
Output line: 0.575

Input line: Consider the sequence shown here: PYADPYYDYEI [ZC3H18_Y371] What is its recorded phosphorylation enrichment?
Output line: 20.2

Input line: Consider the sequence shown here: GEDDVYDSVPG [FGR_opt_2018] What is its recorded phosphorylation enrichment?
Output line: 0.676

Input line: Consider the sequence shown here: EFLQKYKGFKI [SYNE1_Y6953_YF] What is its recorded phosphorylation enrichment?
Output line: 0.393

Input line: Consider the sequence shown here: IGEGTYRQVFK [CDK13_Y716_G717R_YF] What is its recorded phosphorylation enrichment?
Output line: 0.488

Input line: Consider the sequence shown here: SSMIDYNPLEK [MYOC_Y479] What is its recorded phosphorylation enrichment?
Output line: 0.475

Input line: Consider the sequence shown here: LVTRSYLLGNS [LMNA_Y646] What is its recorded phosphorylation enrichment?
Output line: 0.841

Input line: Consider the sequence shown here: VFSTDYFRVGG [NTRK2_Y706_YF] What is its recorded phosphorylation enrichment?
Output line: 6.21

Input line: Consider the sequence shown here: PLGVLYKVKVY [PTS_Y128_V124L] What is its recorded phosphorylation enrichment?
Output line: 0.415

Input line: Consider the sequence shown here: CNRADYSKLAS [GNE_Y22_P27S] What is its recorded phosphorylation enrichment?
Output line: 0.367

Input line: Consider the sequence shown here: GGSDRYGSLRP [MYLK_Y846] What is its recorded phosphorylation enrichment?
Output line: 0.425

Input line: Consider the sequence shown here: RCLKDYGEFEV [GINS1_Y156] What is its recorded phosphorylation enrichment?
Output line: 0.399

Input line: Consider the sequence shown here: CERFSYYGMKA [SLC15A2_Y60] What is its recorded phosphorylation enrichment?
Output line: 3.72

Input line: Consider the sequence shown here: HKANEYYPVVI [ADAMTS18_Y764_L769I] What is its recorded phosphorylation enrichment?
Output line: 17.4

Input line: Consider the sequence shown here: VDSGVYAVPPP [BCAR1_Y410] What is its recorded phosphorylation enrichment?
Output line: 1.2

Input line: Consider the sequence shown here: IFHENYNAGTF [CFI_Y421_YF] What is its recorded phosphorylation enrichment?
Output line: 0.473

Input line: Consider the sequence shown here: TDVSLYPSGGT [TENM4_Y399] What is its recorded phosphorylation enrichment?
Output line: 0.355

Input line: Consider the sequence shown here: FSPCDYQPCLA [TNS1_Y798_Y796C_YF] What is its recorded phosphorylation enrichment?
Output line: 2.38
